# System: late-stage gametocytes of Plasmodium falciparum (NF54 strain)
# Assay info: pLDH assay, late-stage gametocyte viability
# Assay type: cell-based
# Settings: Plasmodium falciparum, NF54, 72 h, 72 + 72 h pLDH assay, 1–2% gametocytaemia, n = 3; read-out: IC50 value, Late stage gametocytes

Compound	IC50 / µM
C=C1C(=O)O[C@H]2C1[C@@H](OC(C)=O)CC(=C)[C@]1(O)C=C[C@@](C)(O)[C@H]21 (stereo partly drawn) [Compound 1, 1α,4α-dihydroxybishopsolicepolide]	6.3
